The measured values listed here are drawn from patent US8247211B2.

Tested on: Escherichia coli
Experiment: In vitro antibacterial evaluation: minimum inhibitory concentration (MIC), broth dilution method
Type: cell-based
Settings: strain GC 4559
Recorded MIC Escherichia coli (GC 4559) values for a group of molecules are listed next.
Answer format: numeric, µg/mL implied, no suffix.

molecule="CCCc1ccc(C2OCC3OC(OC4C(CO)OC(Oc5ccc(CC6NC(=O)C(C(C)c7ccccc7)NC(=O)CNC(=O)C(CO)NC(=O)C(C(O)C7CNC(=N)N7C7OC(CO)C(O)C(O)C7O)NC(=O)C(C(O)C7CNC(=N)N7)NC6=O)cc5)C(O)C4O)C(O)C(O)C3O2)cc1 (stereo not shown)" valuemeasured=64

-- ask Item CC(c1ccccc1)C1NC(=O)CNC(=O)C(CO)NC(=O)C(C(O)C2CNC(=N)N2C2OC(CO)C(O)C(O)C2O)NC(=O)C(C(O)C2CNC(=N)N2)NC(=O)C(Cc2ccc(OC3OC(CO)C(OC4OC5COC(c6cccc(-c7ccccc7)c6)OC5C(O)C4O)C(O)C3O)cc2)NC1=O (stereo not shown) has what recorded MIC Escherichia coli (GC 4559)?
-- reply 32
